Test system: Candida albicans
Assay: Anti-fungal data: Candida albicans
Type: cell-based
Settings: strain A39
measure: MFC (µg/mL)

INSERT INTO measurements (compoundsmiles, measure, u, result) VALUES
  ('Cl.Cl.c1cc(C2=NCCN2)ccc1OCCCOc1ccc(-c2cc3cc(C4=NCCN4)ccc3o2)cc1', 'MFC', 'µg/mL', 10),
  ('CC(C)NC(=N)c1ccc(OCCCCOc2ccc(-c3cc4cc(C(=N)NC(C)C)ccc4o3)cc2)cc1.Cl.Cl', 'MFC', 'µg/mL', 100),
  ('Cl.Cl.N=C(N)c1ccc(OCCCOc2ccc(-c3cc4cc(C(=N)N)ccc4o3)cc2)cc1', 'MFC', 'µg/mL', 10);

* * *

Tested on: Candida albicans
Assay: Anti-fungal data: Candida albicans
Assay type: cell-based
Details: strain A39
Structures can show the parent of a compound that is named as a salt.
Quick rule for you: MFC under 10 µg/mL gets Met, anything else gets Not met.

INSERT INTO measurements (molecule, grouplabel) VALUES
  ('Cl.Cl.N=C(N)c1ccc(OCCCCCOc2cccc(-c3cc4ccc(C(=N)N)cc4o3)c2)cc1', 'Met'),
  ('CC(C)NC(=N)c1ccc(OCCCCCOc2cccc(-c3cc4cc(C(=N)NC(C)C)ccc4o3)c2)cc1.Cl.Cl', 'Not met'),
  ('CC(C)NC(=N)c1ccc(OCCCCCOc2ccc(-c3cc4cc(C(=N)NC(C)C)ccc4o3)cc2)cc1.Cl.Cl', 'Not met'),
  ('Cl.Cl.c1cc(OCCCCCCOc2ccc(C3=NCCN3)cc2)cc(-c2cc3ccc(C4=NCCN4)cc3o2)c1', 'Met'),
  ('Cl.Cl.N=C(N)c1ccc(OCCCCCCOc2ccc(-c3cc4cc(C(=N)N)ccc4o3)cc2)cc1', 'Met'),
  ('Cl.Cl.N=C(N)c1ccc(OCCCCCOc2cccc(-c3cc4cc(C(=N)N)ccc4o3)c2)cc1', 'Not met'),
  ('Cl.Cl.N=C(N)c1ccc2oc(CCc3cc4cc(C(=N)N)ccc4o3)cc2c1', 'Not met'),
  ('Cl.Cl.N=C(N)c1ccc(OCCCCCOc2ccc(-c3cc4cc(C(=N)N)ccc4o3)cc2)cc1', 'Met'),
  ('CC(C)NC(=N)c1ccc2oc(CCCCc3cc4cc(C(=N)NC(C)C)ccc4o3)cc2c1 [Compound 21, dihydrochloride]', 'Not met');

* * *

Test system: Mycobacterium tuberculosis
Assay: Compounds tested against Mycobacterium tuberculosis (MIC90)
Type: cell-based
Conditions: read-out: M. tb. MIC90
measure: MIC90 (µM)

INSERT INTO results (molecule, measure, u, result) VALUES
  ('Cl.Cl.c1cc(C2=NCCN2)ccc1OCCCCCOc1ccc(-c2cc3cc(C4=NCCN4)ccc3o2)cc1 [Compound 52, dihydrochloride]', 'MIC90', 'µM', 16.9),
  ('Cl.Cl.N=C(N)c1ccc(OCCCCCOc2ccc(-c3cc4cc(C(=N)N)ccc4o3)cc2)cc1 [Compound 50, dihydrochloride]', 'MIC90', 'µM', 1.84),
  ('CC(C)NC(=N)c1ccc(OCCCOc2ccc(-c3cc4cc(C(=N)NC(C)C)ccc4o3)cc2)cc1.Cl.Cl [Compound 45, dihydrochloride]', 'MIC90', 'µM', 1.86),
  ('Cl.Cl.N=C(N)c1ccc(OCCCCCOc2cccc(-c3cc4ccc(C(=N)N)cc4o3)c2)cc1 [Compound 62, dihydrochloride]', 'MIC90', 'µM', 1.15);
